TEST METHOD NOTES: chemical genetic growth profiling, strain panel (AID 1159580);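 note: tested at 20 µM; growth read once vehicle control cultures reached saturation at 30 °C; 1 = growth at the plate median or of vehicle wells; lower values mean less growth of the strain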
MEASUREMENT SETUP: S. cerevisiae strains, growth OD, strain wild type
Screen size: about 5,500 compounds; about 2,000 (36%) were called active. Another 18% or so got no clear call; they are omitted. Cut-off read from the data, not from the text of the source: active = normalized growth mostly below about 0.91 (no sharp cut-off); inconclusive = no clear call, values can overlap the other calls; inactive = mostly above about 0.92. The list shows a part of the results.
Classes used: 1 (active), -1 (inactive)

| MOLECULE | GROUP |
| --- | --- |
| CC(=O)OC1CN2CCC1CC2 (stereo not given) | -1 |
| C[C@]12CCC3c4ccc(OS(=O)(=O)O)cc4CCC3C1CC[C@H]2O (stereo not given in full) | -1 |
| CC1(C)C(=O)C=C[C@@]2(C)C1C[C@@H](O)[C@]1(C)C2CC[C@@]2(C)[C@H](c3ccoc3)OC(=O)[C@H]3O[C@]321 (stereo not given in full) | -1 |
| COc1ccc2c(c1)CCC1C2CCC2(C)C1C[C@@H](O)C2O (stereo not given in full) | -1 |
| COc1ccc2c(c1)CCC1C2CC[C@@]2(C)C1CC[C@@H]2O (stereo not given in full) | 1 |
| CSc1cccc(NC(=S)N=CN(C)C)c1 | -1 |
| Cc1cc(OC(=O)c2c(C)cc(OC(=O)c3c(C)cc(O)cc3O)cc2O)cc(O)c1C(=O)O | -1 |
| S=c1nccc(-c2ccc(Cl)cc2)[nH]1 | 1 |
| CCOC(=O)c1c(C)cc(OC)cc1O | -1 |
| CO[C@@]1(NC(=O)C(C(=O)O)c2ccc(O)cc2)C(=O)N2C(C(=O)O)=C(CSc3nnnn3C)CO[C@@H]21 (stereo not given in full) | -1 |
